- Test system: VchCAST RNA-guided transposition machinery (E. coli BL21(DE3) host, lacZ target)
- ASSAY REMARKS: relative integration efficiency (T-RL orientation) vs wild-type transposon end (log2 (normalized fold change)); transposon end mutated: right end (5 bp flank + 75 bp right end); higher = more efficient transposition
For each entry below, report its relative integration efficiency (log2) value.
Please reply with the value in numeric form only.

For the sequence ACATTTGTGGATACAACCATAAAATGATAATTACACCCATAAATTCATCATTATCACACCCAATTTAACTATAACGCTCTGATCATAGTCAGACCAACATTGCTACGACCCGTATTCGCACCGACAC , give its measured relative integration efficiency (log2) value.
-2.03

For the sequence ACATTTGTTGATACAACCATAAAGTGATATTTACAACCATAAAGTGATATTTATCACACCCATAAATTGATATTGCCTCTGATCATAGTCAGACCAACATTGCTACGACCCGTATTCGCACCGACAC , give its measured relative integration efficiency (log2) value.
-0.0388

For the sequence ACATTTGTTGATACAACCATAAAGTGATATTTACACCCATAAATTGATAATTATCACACCCATAAATTGATAATTACTCTGATCATAGTCAGACCAACATTGCTACGACCCGTATTCGCACCGACAC , give its measured relative integration efficiency (log2) value.
0.112

For the sequence ACATTTGTTGATACAACCATAAAATGATAATTACACCCATAAATTGATAATTATCACTGCCATAAATTGATATTGCCTCTGATCATAGTCAGACCAACATTGCTACGACCCGTATTCGCACCGACAC , give its measured relative integration efficiency (log2) value.
-0.228

For the sequence ACATTTGTTGATACAACCATAAAATGATAATTACTGGGATAAATTGATAATTATCACACCCATAAATTGATATTGCCTCTGATCATAGTCAGACCAACATTGCTACGACCCGTATTCGCACCGACAC , give its measured relative integration efficiency (log2) value.
-0.454

---

- System: VchCAST RNA-guided transposition machinery (E. coli BL21(DE3) host, lacZ target)
- ASSAY REMARKS: relative integration efficiency (T-LR orientation) vs wild-type transposon end (log2 (normalized fold change)); transposon end mutated: right end (5 bp flank + 75 bp right end); higher = more efficient transposition
For each entry below, report its relative integration efficiency (log2) value.
Please reply with the value in numeric form only.

State measured relative integration efficiency (log2) of the sequence ACATTTGTTGATACAACCATAAAATGATAATTACACCCATAAATTGATAATTATCACACCGTATAATTGATATTGCCTCTGATCATAGTCAGACCAACATTGCTACGACCCGTATTCGCACCGACAC with VchCAST RNA-guided transposition machinery (E. coli BL21(DE3) host, lacZ target).
2.25

State measured relative integration efficiency (log2) of the sequence ACATTTGTTGCGCAAACCATAAAATGATAATTACACCCATAAATTGATAATTATCACACCCATAAATTGATATTGCCTCTGATCATAGTCAGACCAACATTGCTACGACCCGTATTCGCACCGACAC with VchCAST RNA-guided transposition machinery (E. coli BL21(DE3) host, lacZ target).
-2.91

State measured relative integration efficiency (log2) of the sequence ACATTTGTTGATACAACCAATAAATGATAATTACCCCCATAAATTGATAATTGTGACACCGAATTTAACTATAACGCTCTGATCATAGTCAGACCAACATTGCTACGACCCGTATTCGCACCGACAC with VchCAST RNA-guided transposition machinery (E. coli BL21(DE3) host, lacZ target).
1.59

State measured relative integration efficiency (log2) of the sequence ACATTTGTTGATATGCAACCATAAAATGATAATTACACCCATAAATTGATAATTATCACACCCATAAATTGATATTGCCTCTGATCATAGTCAGACCAACATTGCTACGACCCGTATTCGCACCGAC with VchCAST RNA-guided transposition machinery (E. coli BL21(DE3) host, lacZ target).
-7.72

State measured relative integration efficiency (log2) of the sequence ACATTTGTTGATACAACCATAAAATCATAATTACCCCCATCAATTGATAATTATCACACCCCATTTAACTATAACGCTCTGATCATAGTCAGACCAACATTGCTACGACCCGTATTCGCACCGACAC with VchCAST RNA-guided transposition machinery (E. coli BL21(DE3) host, lacZ target).
-1.5

State measured relative integration efficiency (log2) of the sequence ACATTTGTTGATACAACCATAAAATGATAATTACACCCATAAATTGATAATTATCACACCCATAAATTGATATTGCCTCTGATCGTTTTAAGGATGACTTCAGTCGCGCCGTACTTCGCACCGACAC with VchCAST RNA-guided transposition machinery (E. coli BL21(DE3) host, lacZ target).
-0.209

State measured relative integration efficiency (log2) of the sequence ACATTTGTTGATACAACCATAAAGTGATATTTACAACCATAAGTTGATATTTTTCACAACCATAAAGTGATATTTACTCTGATCATAGTCAGACCAACATTGCTACGACCCGTATTCGCACCGACAC with VchCAST RNA-guided transposition machinery (E. coli BL21(DE3) host, lacZ target).
0.0534

State measured relative integration efficiency (log2) of the sequence ACATTTGTTGATACAACCATAAAGTGATATTTACACCCATAAATTGATAATTATCAGTGGGTATTTAACTATAACGCTCTGATCATAGTCAGACCAACATTGCTACGACCCGTATTCGCACCGACAC with VchCAST RNA-guided transposition machinery (E. coli BL21(DE3) host, lacZ target).
2.57

State measured relative integration efficiency (log2) of the sequence ACATTTGCTGATAGAACCATATAATGATAATAACACCAATAAAATGATAATTATCACACCCAATTTAACTATAACGCTCTGATCATAGTCAGACCAACATTGCTACGACCCGTATTCGCACCGACAC with VchCAST RNA-guided transposition machinery (E. coli BL21(DE3) host, lacZ target).
-2.34

State measured relative integration efficiency (log2) of the sequence ACATTTGTTGATACAACCATAAAATGATAATTACACCCAGCCCTTGATAATTATCACACCCATAAATTGATATTGCCTCTGATCATAGTCAGACCAACATTGCTACGACCCGTATTCGCACCGACAC with VchCAST RNA-guided transposition machinery (E. coli BL21(DE3) host, lacZ target).
-2.1

---

- Tested on: VchCAST RNA-guided transposition machinery (E. coli BL21(DE3) host, lacZ target)
- ASSAY REMARKS: relative integration efficiency (T-LR orientation) vs wild-type transposon end (log2 (normalized fold change)); transposon end mutated: right end (5 bp flank + 75 bp right end); higher = more efficient transposition
Entry flag: 1 (yes) if relative integration efficiency (log2) reaches 0.08; 0 (no) if it does not.

Entry ACATTTGTTGATACAACCATAAAATGATAATTAATAATTATTTATAATCAGCAACTTCACCCATAAATTGATAATTATCAACAAACGCCCGGTCGCGGTACTCTGATCATAGTCAGACCAACATTGC : is its relative integration efficiency (log2) no less than 0.08?
1 (yes)

Entry ACATTTGTTGATACACCCATAAATTGATAATTACACCCATAAATTGATAATTATCACACCCATAAATTGATAATTACTCTGATCATAGTCAGACCAACATTGCTACGACCCGTATTCGCACCGACAC : is its relative integration efficiency (log2) no less than 0.08?
0 (no)

Entry ACATTTGTTGATACAACCATAAAATGATAATTACACCCATAAATTGATAATTATCACACCCATAAATTGATATTGAAGATGATCATAGTCAGACCAACATTGCTACGACCCGTATTCGCACCGACAC : is its relative integration efficiency (log2) no less than 0.08?
1 (yes)

Entry ACATTTGTTGATACAACCATAAAATGATCATTACACCCATCAATTGATAATTATCACACCCAATTTAACTATAACGCTCTGATCATAGTCAGACCAACATTGCTACGACCCGTATTCGCACCGACAC : is its relative integration efficiency (log2) no less than 0.08?
1 (yes)

Entry ACATTTGTGGATACAACCCTAAAATGATAATTACACCCATAAATTCATAATTATCACACCCAATTTAACTATAACGCTCTGATCATAGTCAGACCAACATTGCTACGACCCGTATTCGCACCGACAC : is its relative integration efficiency (log2) no less than 0.08?
0 (no)

---

- Test system: VchCAST RNA-guided transposition machinery (E. coli BL21(DE3) host, lacZ target)
- ASSAY REMARKS: relative integration efficiency (T-LR orientation) vs wild-type transposon end (log2 (normalized fold change)); transposon end mutated: left end; higher = more efficient transposition
For each entry below, report its relative integration efficiency (log2) value.
Please reply with the value in numeric form only.

For the sequence AATGTTGTTGATGCAACCATAAAGTGATATTTAATAATTATTTATAATCAGCAACTTAACCACAAAACAACCATATATTGATATCTCACCAACCATAAGTTGATATTTTTGTGAATCGAGTATTTCAGCAAAACTACTGCAGTAAGAAAGTT , give its measured relative integration efficiency (log2) value.
-2.01

For the sequence AATGTTGTTGATGCAACCATAAAGTGATATTTAATAATTATTTATAATCAGCAACTTAACCACAAAATGTGAATCGAGTATTTCAGCAAAACCAACCATATATTGATATCTCACAAAACAACCATAAGTTGATATTTTTACTGCAGTAAGAA , give its measured relative integration efficiency (log2) value.
-3.73
